B1: C2orf65 (parent)
chain: QLDWDELETNQQHFHALCHSLLVS

# Variants of: B1
# assay.procedure: protein stability index of a GFP-peptide fusion (GPS, HEK-293T) (PSI 1-6); higher = more stable;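 also: lentivirally expressed fusions sorted by FACS into six bins by GFP to DsRed ratio, PSI derived from sequencing read proportions per bin multiplied by bin number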
# test.parameters: c terminus: a fixed tail appended
We use 2 as the dividing line for protein stability index: on or above the line is 1.0, below is 0.0.

>>> print(df.to_string())
   variant_designation  assigned_category
0                  L7N                1.0
1                 H15T                1.0
2                 F14N                1.0
3                  D3F                0.0
4                 H15S                0.0
5                  E8C                0.0
6                 H13P                1.0
7                 A16Q                1.0

Please check the record A16L and state if its protein stability index is at or above 2.
0.0

Please check the record C18N and state if its protein stability index is at or above 2.
1.0

Please check the record L7F and state if its protein stability index is at or above 2.
1.0

Please check the record T9Q and state if its protein stability index is at or above 2.
1.0

Please check the record Q11V and state if its protein stability index is at or above 2.
0.0

Please check the record W4R and state if its protein stability index is at or above 2.
1.0

Please check the record L2R and state if its protein stability index is at or above 2.
1.0
